molecular target: glutaminase (brain membranes) (Rattus norvegicus, UniProt P13264); construct: Membranes are prepared by homogenization of brain tissue in 330 mM sucrose; from tissue; host or cells: rat brain, crude membranes (17000 G pellet); experiment: biochemical; settings: read-out: Glutaminase Activity
Non-standard residues stand in square brackets, D forms with d. Residues, ends and D or L forms follow the SMILES beside them. pGlu = O=C1CC[C@@H](C(=O)O)N1
attribute measured: activity at 3300 µM (%)

1) N[C@@H](CCC(=O)NCC(=O)O)C(=O)O ... 90
2) CC[C@](N)(CCC(=O)O)C(=O)O ... 95
3) C[C@H](NC(=O)[C@@H]1CCC(=O)N1)C(=O)N[C@@H](CCC(=O)O)C(=O)O [pyro-Glu--Ala--Glu] ([pGlu]-Ala-Glu-OH) ... 95
4) CC(=O)N[C@@H](CC(=O)O)C(=O)N[C@@H](CCC(=O)O)C(=O)O [N-acetyl Asp--Glu] (Ac-Asp-Glu-OH) ... 83
5) C[C@H](N)C(=O)N[C@@H](CCC(=O)O)C(=O)O [Ala--Glu] (H-Ala-Glu-OH) ... 117
6) CCOC(=O)CC[C@H](N)C(=O)O [L-glutamate-5-ethyl ester] ... 98
7) NC(=O)[C@@H](N)CCC(=O)O [L-glutamide] ... 99
8) NC(CC(C(=O)O)C(=O)O)C(=O)O (stereo not drawn) [γ-carboxy glutamate] ... 100
9) CC(C)(C)OC(=O)N[C@@H](CCC(=O)O)C(=O)O ... 101

====

Target: glutaminase (brain membranes) (Rattus norvegicus)
Construct: Membranes are prepared by homogenization of brain tissue in 330 mM sucrose; from tissue; host or cells: rat brain, crude membranes (17000 G pellet)
Sequence (P13264 73-674 limits assumed): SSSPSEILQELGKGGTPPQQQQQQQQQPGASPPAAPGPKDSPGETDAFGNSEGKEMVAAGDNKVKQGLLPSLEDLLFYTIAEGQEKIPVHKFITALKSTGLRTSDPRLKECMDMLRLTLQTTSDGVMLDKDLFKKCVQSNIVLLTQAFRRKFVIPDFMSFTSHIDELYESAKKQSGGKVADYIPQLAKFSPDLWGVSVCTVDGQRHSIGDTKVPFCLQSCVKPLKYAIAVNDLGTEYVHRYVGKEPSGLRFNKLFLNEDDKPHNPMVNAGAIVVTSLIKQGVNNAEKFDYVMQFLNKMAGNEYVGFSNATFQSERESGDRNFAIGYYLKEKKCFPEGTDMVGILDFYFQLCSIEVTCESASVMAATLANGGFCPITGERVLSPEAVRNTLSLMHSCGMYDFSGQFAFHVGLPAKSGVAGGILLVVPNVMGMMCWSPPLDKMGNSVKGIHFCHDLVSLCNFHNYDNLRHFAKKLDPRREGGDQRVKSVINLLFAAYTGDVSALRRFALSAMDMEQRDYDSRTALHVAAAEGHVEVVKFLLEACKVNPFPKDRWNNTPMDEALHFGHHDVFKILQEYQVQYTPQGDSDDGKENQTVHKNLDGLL
Assay: biochemical
Details: read-out: Glutaminase Activity
Residues, ends and D or L forms follow the SMILES beside them.
Binarize activity at 3300 µM at 80%; below is T, at or above is F.

1. CC(N)(CCC(=O)O)C(=O)O (racemic) [α-methyl-DL-glutamate] ... T
2. N[C@@H](Cc1c[nH]c2ccccc12)C(=O)N[C@@H](CCC(=O)O)C(=O)O [Trp--Glu] (H-Trp-Glu-OH) ... F
3. CC(CC(N)C(=O)O)C(=O)O (racemic) [(±)-threo-4-methylglutamate] ... F
4. N[C@@H](CCC(=O)O)C(=O)O [L-glutamic acid] ... F
5. N[C@@H](CC(F)C(=O)O)C(=O)O (stereo partly drawn) [4-fluoroglutamic acid] ... T
6. C[C@@H](CC(=O)O)[C@H](N)C(=O)O (relative stereo) [(±)-erythro-3-methylglutamate] ... T
7. N[C@@H](CCC(=O)O)C(=O)N[C@@H](CCC(=O)O)C(=O)O [Glu--Glu] (H-Glu-Glu-OH) ... F
8. NCCCC[C@H](NC(=O)[C@@H](N)CCC(=O)O)C(=O)O [Glu--Lys] (H-Glu-Lys-OH) ... F

Data origin: patent US6310093A
